Assay: Cmax in ICR mouse at 10 mg/kg, po measured upto 1440 mins by LC/MS/MS analysis
Assay type: ADME, organism-based
Design: dose 10 mg/kg, time < 1440 min, route po
Conditions: in vivo
Quick list: Cmax per entry.
Kindly provide the numeric value in µg/mL only, without the unit symbol.

Worked set:
                                test_smiles  data_value
0  CCOc1cc2ncnc(Nc3ccc(Oc4cc5nncn5cn4)c(C)c3)c2cc1NC(=O)/C(F)=C/[C@H]1CCCN1C         1.9
1  CCOc1cc2ncnc(Nc3ccc(Oc4cc5nncn5cn4)c(C)c3)c2cc1NC(=O)/C(F)=C\[C@@H]1CCCN1C        0.29

Then there is this compound:
Looking for the measured Cmax of "CCOc1cc2ncnc(Nc3ccc(Oc4cc5nncn5cn4)c(C)c3)c2cc1NC(=O)/C=C/[C@H]1CCCN1C" , can you help?
0.4

* * *

Molecular target: Receptor tyrosine-protein kinase erbB-2 (Homo sapiens, UniProt P04626, R896C)
Sequence (P04626 23-1255 R896C limits assumed): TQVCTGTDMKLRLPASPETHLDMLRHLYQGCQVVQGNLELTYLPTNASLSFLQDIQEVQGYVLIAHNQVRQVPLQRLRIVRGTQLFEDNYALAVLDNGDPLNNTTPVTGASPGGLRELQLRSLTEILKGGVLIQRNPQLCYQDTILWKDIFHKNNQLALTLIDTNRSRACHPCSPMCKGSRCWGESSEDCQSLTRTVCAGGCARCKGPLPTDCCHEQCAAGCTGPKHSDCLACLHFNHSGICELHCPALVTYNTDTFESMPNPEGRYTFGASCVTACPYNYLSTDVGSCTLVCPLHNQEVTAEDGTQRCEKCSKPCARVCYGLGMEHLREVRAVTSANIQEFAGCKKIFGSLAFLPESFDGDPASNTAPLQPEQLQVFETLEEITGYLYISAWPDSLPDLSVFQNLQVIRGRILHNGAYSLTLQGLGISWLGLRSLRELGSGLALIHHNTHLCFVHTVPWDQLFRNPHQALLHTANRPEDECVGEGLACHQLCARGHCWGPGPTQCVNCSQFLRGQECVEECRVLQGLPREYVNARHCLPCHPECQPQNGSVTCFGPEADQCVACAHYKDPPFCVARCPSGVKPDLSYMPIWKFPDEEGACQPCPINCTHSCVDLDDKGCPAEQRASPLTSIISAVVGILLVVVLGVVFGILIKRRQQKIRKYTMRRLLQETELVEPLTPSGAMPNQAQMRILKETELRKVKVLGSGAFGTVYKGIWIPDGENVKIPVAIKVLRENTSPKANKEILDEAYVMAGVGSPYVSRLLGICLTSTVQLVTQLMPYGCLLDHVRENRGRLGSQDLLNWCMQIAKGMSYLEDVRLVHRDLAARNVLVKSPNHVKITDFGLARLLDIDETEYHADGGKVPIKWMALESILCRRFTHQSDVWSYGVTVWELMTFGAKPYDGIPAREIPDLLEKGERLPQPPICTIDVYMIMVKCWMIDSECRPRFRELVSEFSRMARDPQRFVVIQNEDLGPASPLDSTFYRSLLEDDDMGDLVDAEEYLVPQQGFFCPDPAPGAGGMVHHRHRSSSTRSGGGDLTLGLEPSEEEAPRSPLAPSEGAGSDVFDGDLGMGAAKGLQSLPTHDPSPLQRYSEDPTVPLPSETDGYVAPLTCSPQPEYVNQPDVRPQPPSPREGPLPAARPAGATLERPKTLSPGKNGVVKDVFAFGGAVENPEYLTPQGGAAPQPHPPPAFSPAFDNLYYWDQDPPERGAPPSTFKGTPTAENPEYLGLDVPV
Assay: Inhibition of HER2 R896C mutant (unknown origin) incubated for 120 mins in presence of 33P-ATP by P81 ion exchange cellulose chromatography
Quick list: IC50 per entry.
Kindly provide the numeric value in nM only, without the unit symbol.

>>> print(df.to_string())
                                test_smiles  data_value
0  CCOc1cc2ncnc(Nc3ccc(Oc4cc5nncn5cn4)c(C)c3)c2cc1NC(=O)/C(F)=C/[C@H]1CCCN1C        0.56

Then there is this compound:
Given the entry "CCOc1cc2ncc(C#N)c(Nc3ccc(OCc4ccccn4)c(Cl)c3)c2cc1NC(=O)/C=C/[C@H]1CCCN1C" , what IC50 was observed with Receptor tyrosine-protein kinase erbB-2 (Homo sapiens, UniProt P04626, R896C)?
2.4

* * *

Test: Metabolic stability in human liver microsomes assessed as intrinsic clearance at 1 uM preincubated for 5 mins followed by NADPH addition by LC-MS/MS analysis
Type: ADME, Microsome
Settings: read-out: CLH
Mark t for reported microsomal CLint at 1 µM of 20 µL/min/mg or greater; mark f for anything smaller.

>>> print(df.to_string())
                                test_smiles  assigned_label
0  CCOc1cc2ncnc(Nc3ccc(Oc4cc5nncn5cn4)c(C)c3)c2cc1NC(=O)/C(F)=C\[C@H]1CCCN1C               t
1  CCOc1cc2ncnc(Nc3ccc(Oc4cc5nncn5cn4)c(C)c3)c2cc1NC(=O)/C(F)=C/[C@H]1CCCN1C               f
2  CCOc1cc2ncnc(Nc3ccc(Oc4cc5nncn5cn4)c(C)c3)c2cc1NC(=O)/C=C/[C@H]1CCCN1C               f
3  C=C(F)C(=O)Nc1cc2c(Nc3ccc(Oc4cc5nncn5cn4)c(C)c3)ncnc2cc1OCC               t

Lab note: next molecule to report on.
Hi team, for "CCOc1cc2ncnc(Nc3ccc(Oc4cc5nncn5cn4)c(C)c3)c2cc1NC(=O)/C(F)=C/[C@@H]1CCCN1C" , is the recorded microsomal CLint at 1 µM at or above 20 µL/min/mg?
f

* * *

Assay: Cmax in Sprague-Dawley rat at 10 mg/kg, po measured upto 1440 mins by LC/MS/MS analysis
Format: ADME, organism-based
Design: time < 1440 min, dose 10 mg/kg, route po
Settings: in vivo
Quick list: Cmax per entry.
Kindly provide the numeric value in ng/mL only, without the unit symbol.

In [3]: df
Out[3]:
                                test_smiles  outcome_measure  data_value
0  CCOc1cc2ncnc(Nc3ccc(Oc4cc5nncn5cn4)c(C)c3)c2cc1NC(=O)/C(F)=C/[C@H]1CCCN1C             Cmax         760

Looking for the measured Cmax of "CCOc1cc2ncnc(Nc3ccc(Oc4cc5nncn5cn4)c(C)c3)c2cc1NC(=O)/C(F)=C\[C@@H]1CCCN1C" , can you help?
30

Check "CCOc1cc2ncnc(Nc3ccc(Oc4cc5nncn5cn4)c(C)c3)c2cc1NC(=O)/C=C/[C@H]1CCCN1C" too.
280

* * *

Assay: Tmax in ICR mouse at 10 mg/kg, po measured upto 1440 mins by LC/MS/MS analysis
Assay type: ADME, organism-based
Settings: in vivo
Quick list: Tmax per entry.
Kindly provide the numeric value in h only, without the unit symbol.

Worked set:
In [3]: df
Out[3]:
                                test_smiles  outcome_measure  data_value
0  CCOc1cc2ncnc(Nc3ccc(Oc4cc5nncn5cn4)c(C)c3)c2cc1NC(=O)/C(F)=C\[C@@H]1CCCN1C             Tmax        0.42
1  CCOc1cc2ncnc(Nc3ccc(Oc4cc5nncn5cn4)c(C)c3)c2cc1NC(=O)/C=C/[C@H]1CCCN1C             Tmax        1.67

Looking for the measured Tmax of "CCOc1cc2ncnc(Nc3ccc(Oc4cc5nncn5cn4)c(C)c3)c2cc1NC(=O)/C(F)=C/[C@H]1CCCN1C" , can you help?
2.67

* * *

Molecular target: Receptor tyrosine-protein kinase erbB-2 (Homo sapiens)
Assay: Inhibition of wild type human GST-tagged HER2 (676 to end residues) expressed in baculovirus infected Sf9 cells incubated for 30 mins in presence of ATP by HTRF analysis
Quick list: IC50 per entry.
Kindly provide the numeric value in nM only, without the unit symbol.

Worked set:
In [3]: df
Out[3]:
                                test_smiles  outcome_measure  readout_units  data_value
0  CCOc1cc2ncnc(Nc3ccc(Oc4cc5nncn5cn4)c(C)c3)c2cc1NC(=O)/C(F)=C/[C@@H]1CCCN1C             IC50             nM        3.38
1  CCOc1cc2ncnc(Nc3ccc(Oc4cc5nncn5cn4)c(C)c3)c2cc1NC(=O)/C(F)=C\[C@H]1CCCN1C             IC50             nM         7.3
2  Cc1cc(Nc2ncnc3cc(O)c(NC(=O)/C=C/[C@H]4CCCN4C)cc23)ccc1Oc1cnn2cnnc2c1             IC50             nM          16

Then there is this molecule:
Looking for the measured IC50 of "CCOc1cc2ncnc(Nc3ccc(Oc4cc5nncn5cn4)c(C)c3)c2cc1NC(=O)/C=C/[C@H]1CCCN1C" , can you help?
1.67

* * *

Target: Epidermal growth factor receptor (Homo sapiens, UniProt P00533)
Sequence (P00533 whole entry, the tested form may be a part): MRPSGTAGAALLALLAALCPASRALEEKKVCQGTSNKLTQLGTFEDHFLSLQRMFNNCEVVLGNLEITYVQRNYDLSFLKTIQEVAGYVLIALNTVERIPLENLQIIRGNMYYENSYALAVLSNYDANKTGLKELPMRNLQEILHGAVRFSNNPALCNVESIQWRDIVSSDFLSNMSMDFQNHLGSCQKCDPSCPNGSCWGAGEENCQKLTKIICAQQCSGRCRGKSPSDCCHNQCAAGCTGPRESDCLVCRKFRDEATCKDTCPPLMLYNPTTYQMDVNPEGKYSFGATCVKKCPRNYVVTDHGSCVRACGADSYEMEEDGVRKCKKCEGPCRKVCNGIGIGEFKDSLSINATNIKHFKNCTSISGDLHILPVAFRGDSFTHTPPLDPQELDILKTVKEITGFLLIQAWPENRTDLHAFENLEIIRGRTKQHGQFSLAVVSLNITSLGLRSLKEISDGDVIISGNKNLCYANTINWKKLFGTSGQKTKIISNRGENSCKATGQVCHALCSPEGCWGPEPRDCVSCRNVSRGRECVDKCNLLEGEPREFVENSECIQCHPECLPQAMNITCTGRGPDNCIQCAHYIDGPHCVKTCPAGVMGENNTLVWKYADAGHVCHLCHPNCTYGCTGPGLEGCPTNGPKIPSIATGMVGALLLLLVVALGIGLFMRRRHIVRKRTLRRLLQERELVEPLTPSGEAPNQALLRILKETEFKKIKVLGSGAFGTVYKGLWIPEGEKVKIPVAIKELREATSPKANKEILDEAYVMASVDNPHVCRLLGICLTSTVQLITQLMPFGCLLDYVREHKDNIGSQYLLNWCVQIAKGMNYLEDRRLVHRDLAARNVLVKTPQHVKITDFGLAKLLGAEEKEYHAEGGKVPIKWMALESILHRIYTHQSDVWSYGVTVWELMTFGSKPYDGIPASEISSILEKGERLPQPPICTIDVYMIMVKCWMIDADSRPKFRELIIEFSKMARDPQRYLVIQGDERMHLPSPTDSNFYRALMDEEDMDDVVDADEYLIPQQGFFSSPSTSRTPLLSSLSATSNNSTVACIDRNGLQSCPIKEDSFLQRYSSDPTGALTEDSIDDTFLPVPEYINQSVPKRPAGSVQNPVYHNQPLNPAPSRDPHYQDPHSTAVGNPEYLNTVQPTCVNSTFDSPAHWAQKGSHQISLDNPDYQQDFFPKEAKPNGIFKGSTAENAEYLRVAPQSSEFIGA
Assay: Inhibition of wild type human N-terminal GST tagged EGFR (669 to 1210 residues) expressed in Sf21 insect cells incubated for 30 mins in presence of ATP by HTRF analysis
Quick list: IC50 per entry.
Kindly provide the numeric value in nM only, without the unit symbol.

Worked set:
In [3]: df
Out[3]:
                                test_smiles  data_value
0  Cc1cc(Nc2ncnc3cc(O)c(NC(=O)/C=C/[C@H]4CCCN4C)cc23)ccc1Oc1ccn2ncnc2c1         2.8
1  Cc1cc(Nc2ncnc3ccc(NC(=O)/C=C/CN(C)C)cc23)ccc1Oc1cc2nncn2cn1        2.13
2  C=CC(=O)Nc1cc2c(Nc3ccc(Oc4cc5nncn5cn4)c(C)c3)ncnc2cc1OCC        1.47

Looking for the measured IC50 of "CCOc1cc2ncnc(Nc3ccc(Oc4cc5nncn5cn4)c(C)c3)c2cc1NC(=O)/C(F)=C/[C@@H]1CCCN1C" , can you help?
32.1

* * *

Assay: AUC (0 to t) in cynomolgus monkey at 15 mg/kg, po measured upto 1440 mins by LC/MS/MS analysis
Format: ADME, organism-based, Macaca fascicularis
Design: time < 1440 min, dose 15 mg/kg, route po
Conditions: in vivo
Outcome Measure: AUC(0-t) at 24 h (ng·h/mL)
Kindly provide the numeric value in ng·h/mL only, without the unit symbol.

Looking for the measured AUC(0-t) at 24 h of "CCOc1cc2ncnc(Nc3ccc(Oc4cc5nncn5cn4)c(C)c3)c2cc1NC(=O)/C(F)=C/[C@H]1CCCN1C" , can you help?
10400

* * *

Quick list: pIC50 per entry.
Biological target: Receptor tyrosine-protein kinase erbB-2 (Homo sapiens, UniProt P04626, D769Y)
Sequence (P04626 23-1255 D769Y limits assumed): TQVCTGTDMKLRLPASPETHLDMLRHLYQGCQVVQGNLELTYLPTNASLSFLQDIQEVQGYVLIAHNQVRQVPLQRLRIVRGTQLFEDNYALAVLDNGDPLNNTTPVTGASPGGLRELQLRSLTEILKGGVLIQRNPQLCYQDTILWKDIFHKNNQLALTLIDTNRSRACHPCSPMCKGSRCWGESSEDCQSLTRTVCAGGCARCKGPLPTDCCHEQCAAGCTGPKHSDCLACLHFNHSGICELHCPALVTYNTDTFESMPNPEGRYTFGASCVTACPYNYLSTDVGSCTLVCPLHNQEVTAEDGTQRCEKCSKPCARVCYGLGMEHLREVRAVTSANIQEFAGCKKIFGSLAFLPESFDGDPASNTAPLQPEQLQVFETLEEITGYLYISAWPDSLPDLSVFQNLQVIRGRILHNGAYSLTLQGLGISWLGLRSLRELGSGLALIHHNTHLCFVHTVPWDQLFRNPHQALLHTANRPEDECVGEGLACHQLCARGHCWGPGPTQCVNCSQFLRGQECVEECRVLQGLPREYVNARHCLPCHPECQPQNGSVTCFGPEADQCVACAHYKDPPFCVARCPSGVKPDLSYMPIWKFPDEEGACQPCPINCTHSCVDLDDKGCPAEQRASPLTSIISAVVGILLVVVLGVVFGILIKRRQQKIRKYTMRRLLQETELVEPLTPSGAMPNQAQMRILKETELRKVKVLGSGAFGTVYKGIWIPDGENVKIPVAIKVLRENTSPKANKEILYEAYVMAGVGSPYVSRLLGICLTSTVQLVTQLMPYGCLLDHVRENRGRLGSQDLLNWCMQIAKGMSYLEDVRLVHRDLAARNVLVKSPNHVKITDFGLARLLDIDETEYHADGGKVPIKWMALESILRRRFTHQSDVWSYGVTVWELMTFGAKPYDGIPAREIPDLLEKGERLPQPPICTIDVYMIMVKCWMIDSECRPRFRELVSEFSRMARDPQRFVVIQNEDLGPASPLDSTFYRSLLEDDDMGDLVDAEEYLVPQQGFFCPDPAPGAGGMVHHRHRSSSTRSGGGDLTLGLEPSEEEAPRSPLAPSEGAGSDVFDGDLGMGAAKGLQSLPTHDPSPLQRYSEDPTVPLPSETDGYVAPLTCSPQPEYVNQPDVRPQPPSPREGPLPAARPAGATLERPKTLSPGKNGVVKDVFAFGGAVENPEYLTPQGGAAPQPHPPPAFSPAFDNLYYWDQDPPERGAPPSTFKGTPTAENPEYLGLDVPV
Test: Inhibition of HER2 D769Y mutant (unknown origin) incubated for 120 mins in presence of 33P-ATP by P81 ion exchange cellulose chromatography
Here pIC50 is given on a logarithmic scale as minus log10 of the concentration in mol/L.

In [3]: df
Out[3]:
                                test_smiles  outcome_measure  data_value
0  CCOc1cc2ncc(C#N)c(Nc3ccc(OCc4ccccn4)c(Cl)c3)c2cc1NC(=O)/C=C/[C@H]1CCCN1C            pIC50        7.24

Looking for the measured pIC50 of "CCOc1cc2ncnc(Nc3ccc(Oc4cc5nncn5cn4)c(C)c3)c2cc1NC(=O)/C(F)=C/[C@H]1CCCN1C" , can you help?
9.37
